- experiment: Stability in human HT29 cells assessed as half life
- Assay type: ADME, cell-based
- measurement parameters: HT-29 cells
experimental endpoint: half-life

compound="O=C(O[C@@H]1Cc2c(O)cc(O)cc2O[C@@H]1c1cc(O)c(O)c(O)c1)c1cc(O)c(O)c(O)c1 [EPIGALOCATECHIN GALLATE]" value_reported="< 2 h"
